Please respond with reported IC50 for every item in the list.
System: Pseudomonnas aeruginosa
experiment: Determination of antimicrobial activity (MIC, bacterial growth in LB broth)
Type: cell-based
conditions: minimum inhibitory concentration (MIC) per method, 37°C, 20 h, read-out: Antimicrobial activity IC50 [µM] P.a.
Ends that are not written are not given here.
Numbers only, in µM.

Worked cases, IC50 given:
# substance, unit.abbrev, IC50
data = [
    ("GFLSILKKVLKVMAHMK-NH2 [II/8]", "µM", 27.5),
    ("H-GFLSILKKVLAKVMAHMK-NH2 [II/2]", "µM", 18.3),
    ("H-GFLSILKKVLPKVLAHLK-NH2 [II/5]", "µM", 20),
    ("H-GFLSILKKVGPKVMAHMK-NH2 [II/14]", "µM", 80),
    ("H-GFLSILKKVLPKVMKAMK-NH2 [II/7]", "µM", 31.7),
]

(Q) Which measured IC50 value corresponds to H-GFLSILKKVLKKVMAHMK-NH2 [II/1] ?
(A) 25.3

---

Tested on: Pseudomonnas aeruginosa
experiment: Determination of antimicrobial activity (MIC, bacterial growth in LB broth)
Format: cell-based
conditions: minimum inhibitory concentration (MIC) per method, 37°C, 20 h, read-out: Antimicrobial activity IC50 [µM] P.a.
Ends that are not written are not given here.
recorded.endpoint: IC50 (µM)
Answers are plain numbers, in µM.

Worked cases, IC50 given:
# substance, test.value
measured = [
    ("H-GFLSILKKVL-NH2 [II/13]", 58.7),
    ("GFLSILKKVLGKVMAHMK-NH2 [II/3]", 14.4),
    ("H-GFLSILKKVLPKVMHAMK-NH2 [II/6]", 35.1),
    ("H-FLSILKKVLPKVMAHMK-NH2 [II/9]", 62.1),
]

(Q) Which measured IC50 value corresponds to H-GFLSILKKVLPKVMAKMK-NH2 [II/4] ?
(A) 33.6

---

System: rat red blood cells
experiment: Determination of hemolytic activity
Type: cell-based
conditions: rat red blood cells (5%), 1 h at 37°C, peptides 1-200 µM
Ends that are not written are not given here.
So basically: Hemolytic activity at 40 µM or higher? That is Satisfied. Lower than 40 µM? That is Not satisfied.

Reference set (6 entries):
# substance, group
data = [
    ("H-GFLSILKKVLPKVMAKMK-NH2 [II/4]", "Satisfied"),
    ("H-GFLSILKKVLKKVMAHMK-NH2 [II/1]", "Not satisfied"),
    ("H-GFLSILKKVL-NH2 [II/13]", "Satisfied"),
    ("H-GFLSILKKVLPKVMKAMK-NH2 [II/7]", "Satisfied"),
    ("GFLSILKKVLGKVMAHMK-NH2 [II/3]", "Satisfied"),
    ("H-FLSILKKVLPKVMAHMK-NH2 [II/9]", "Satisfied"),
]

Now consider a different substance.
(Q) Kindly determine if Hemolytic activity recorded for H-GFLSILKKVLPKVMHAMK-NH2 [II/6] is above or exactly 40 µM.
(A) Satisfied

---

Tested on: Escherichia coli
experiment: Determination of antimicrobial activity (MIC, bacterial growth in LB broth)
Assay type: cell-based
conditions: minimum inhibitory concentration (MIC) per method, 37°C, 20 h, read-out: Antimicrobial activity IC50 [µM] E. c.
Ends that are not written are not given here.
Please respond with reported log10 of IC50 for every item in the list.
Remember, log10 of IC50, in µM.

Worked cases, log10 of IC50 given:
# substance, test.target, log10 of IC50
rows = [
    ("H-GFLSILKKVLPKVLAHLK-NH2 [II/5]", "Escherichia coli", 0.08),
    ("GFLSILKKVLKVMAHMK-NH2 [II/8]", "Escherichia coli", 0.26),
    ("H-GFLSILKKVLPKVMAKMK-NH2 [II/4]", "Escherichia coli", 0.32),
    ("H-GFLSILKKVLPKVMHAMK-NH2 [II/6]", "Escherichia coli", 0.32),
    ("H-GFLSILKKVLKKVMAHMK-NH2 [II/1]", "Escherichia coli", 0.26),
]

Need log10 of IC50 for each of these substances.
1. H-GFLSILKKVGPKVMAHMK-NH2 [II/14]
2. H-GFLSILKKVLP-NH2 [II/12]
3. H-GFLSILKKVLAKVMAHMK-NH2 [II/2]
4. H-FLSILKKVLPKVMAHMK-NH2 [II/9]
5. GFLSILKKVLGKVMAHMK-NH2 [II/3]

(A)
[1.35, 1.89, 0.20, 0.96, 0.26]

Need log10 of IC50 for each of these substances.
1. H-GFLSILKKVLPKVMKAMK-NH2 [II/7]
2. H-GFLSILKKVL-NH2 [II/13]
3. H-LSILKKVLPKVMAHMK-NH2 [II/10]

(A)
1. 0.18
2. 0.96
3. 1.88
